Quick reference: MIC of the listed items.
# System: Staphylococcus aureus
# protocol-description: Antibacterial activity against clinically isolated penicillin-resistant Staphylococcus aureus by broth microdilution method
# Type: functional
measurement-type: MIC (µg/mL)

given-smiles: CC[C@H]1OC(=O)[C@@H](C)[C@H](O[C@H]2C[C@@](C)(OC)[C@@H](OC(=O)NNC(=O)/C=C/c3ccc(Cl)cc3)[C@H](C)O2)[C@@H](C)[C@H](O[C@H]2O[C@@H](C)C[C@@H](N(C)C)[C@@H]2O)[C@@](C)(O)C[C@H](C)CN(C)[C@@H](C)[C@@H]2OC(=O)O[C@@]12C
measurement-type: MIC
measurement-units: µg/mL
test-result: 8
//
given-smiles: CC[C@@H]1OC(=O)[C@H](C)[C@@H](O[C@@H]2C[C@](C)(OC)[C@H](O)[C@@H](C)O2)[C@@H](C)[C@@H](O[C@@H]2O[C@H](C)C[C@H](N(C)C)[C@H]2O)[C@](C)(O)C[C@@H](C)CN(C)[C@H](C)[C@@H](O)[C@]1(C)O
measurement-type: MIC
measurement-units: µg/mL
test-result: 0.12
//
given-smiles: CC[C@H]1OC(=O)[C@@H](C)[C@H](O[C@@H]2C[C@](C)(OC)[C@H](OC(=O)NNC(=O)/C=C/c3ccc(Br)cc3)[C@@H](C)O2)[C@H](C)[C@H](O[C@H]2O[C@@H](C)C[C@@H](N(C)C)[C@@H]2O)[C@@](C)(O)C[C@H](C)CN(C)[C@@H](C)[C@H](OC(=O)NCc2ccccc2)[C@@]1(C)O
measurement-type: MIC
measurement-units: µg/mL
test-result: 2

Recorded values, source ChEMBL document CHEMBL3734701.
